These entries and their values trace back to patent US20240254222A1.

Target: T1, Human Semaphorin3A-Fc (R&D Systems), TPP-13211 (human)
T1 construct: R&D Systems 1250-S3; also called recombinant human Sema3A-Fc chimera
T1 sequence (chain, as listed by the source limits assumed): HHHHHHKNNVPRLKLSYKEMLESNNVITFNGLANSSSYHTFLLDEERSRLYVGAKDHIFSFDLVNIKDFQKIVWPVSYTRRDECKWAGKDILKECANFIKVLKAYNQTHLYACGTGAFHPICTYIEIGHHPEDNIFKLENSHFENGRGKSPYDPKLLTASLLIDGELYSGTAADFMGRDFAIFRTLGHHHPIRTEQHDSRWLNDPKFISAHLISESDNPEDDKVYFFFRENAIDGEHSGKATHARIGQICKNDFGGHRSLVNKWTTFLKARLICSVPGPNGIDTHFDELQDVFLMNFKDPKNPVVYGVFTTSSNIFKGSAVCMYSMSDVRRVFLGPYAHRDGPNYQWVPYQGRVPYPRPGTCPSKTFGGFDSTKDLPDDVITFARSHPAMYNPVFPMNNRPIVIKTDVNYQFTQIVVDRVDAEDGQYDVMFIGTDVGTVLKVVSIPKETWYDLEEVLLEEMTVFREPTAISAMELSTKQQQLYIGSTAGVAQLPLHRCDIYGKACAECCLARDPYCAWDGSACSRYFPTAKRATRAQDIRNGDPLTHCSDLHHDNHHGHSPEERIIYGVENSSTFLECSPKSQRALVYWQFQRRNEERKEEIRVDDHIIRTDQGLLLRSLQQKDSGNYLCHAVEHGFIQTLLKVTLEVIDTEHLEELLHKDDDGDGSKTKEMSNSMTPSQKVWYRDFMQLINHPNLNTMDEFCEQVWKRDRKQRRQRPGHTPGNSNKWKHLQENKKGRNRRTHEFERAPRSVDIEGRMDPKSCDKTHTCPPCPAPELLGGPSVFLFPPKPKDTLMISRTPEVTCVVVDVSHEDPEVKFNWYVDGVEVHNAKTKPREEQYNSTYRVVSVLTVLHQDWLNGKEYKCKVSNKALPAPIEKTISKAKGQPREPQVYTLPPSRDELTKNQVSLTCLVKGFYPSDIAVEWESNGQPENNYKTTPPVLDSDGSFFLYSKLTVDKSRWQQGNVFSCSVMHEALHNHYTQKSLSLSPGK
Assay: ELISA, coated Sema3A-Fc, antibody 0.00015-10 ug/ml
// reported EC50 per item
READOUT TYPE: EC50 (nM)

INSERT INTO results (binder, unit_name, observed_value) VALUES
  ('TPP-30791 (antibody, human IgG1, kappa, V domains shown, prior art, WO 2020/225400; also called BI clone IV; Böhringer (BI) Clone IV) VH: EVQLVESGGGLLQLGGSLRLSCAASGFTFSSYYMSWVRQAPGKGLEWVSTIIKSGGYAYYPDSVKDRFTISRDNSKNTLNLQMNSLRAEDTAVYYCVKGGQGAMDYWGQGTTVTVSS VL: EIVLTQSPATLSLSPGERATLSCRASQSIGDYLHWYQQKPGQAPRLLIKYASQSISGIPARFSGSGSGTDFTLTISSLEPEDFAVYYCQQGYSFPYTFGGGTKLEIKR', 'nM', 0.08),
  ('TPP-30790 (antibody, human IgG1, kappa, V domains shown, prior art, WO 2020/225400; also called BI clone III; Böhringer (BI) Clone III) VH: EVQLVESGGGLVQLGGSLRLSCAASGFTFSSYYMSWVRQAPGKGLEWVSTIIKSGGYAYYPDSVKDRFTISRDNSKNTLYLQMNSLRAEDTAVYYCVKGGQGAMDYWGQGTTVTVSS VL: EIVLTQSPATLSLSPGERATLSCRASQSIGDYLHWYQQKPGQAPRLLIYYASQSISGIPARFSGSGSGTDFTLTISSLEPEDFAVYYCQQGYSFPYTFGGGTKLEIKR', 'nM', 0.08),
  ('TPP-30789 (antibody, human IgG1, kappa, V domains shown, prior art, WO 2020/225400; also called BI clone II; Böhringer (BI) Clone II) VH: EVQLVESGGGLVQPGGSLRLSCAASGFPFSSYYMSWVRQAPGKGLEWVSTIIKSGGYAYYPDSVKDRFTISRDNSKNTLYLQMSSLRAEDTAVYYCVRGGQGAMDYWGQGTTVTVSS VL: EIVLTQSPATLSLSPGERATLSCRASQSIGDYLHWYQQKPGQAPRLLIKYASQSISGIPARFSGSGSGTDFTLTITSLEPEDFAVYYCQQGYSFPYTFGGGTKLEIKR', 'nM', 0.1),
  ('TPP-30788 (antibody, human IgG1, kappa, V domains shown, prior art, WO 2020/225400; also called BI clone I; Böhringer (BI) Clone I) VH: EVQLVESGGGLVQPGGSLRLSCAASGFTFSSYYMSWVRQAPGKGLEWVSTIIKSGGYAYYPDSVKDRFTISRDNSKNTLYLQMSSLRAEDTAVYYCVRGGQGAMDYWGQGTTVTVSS VL: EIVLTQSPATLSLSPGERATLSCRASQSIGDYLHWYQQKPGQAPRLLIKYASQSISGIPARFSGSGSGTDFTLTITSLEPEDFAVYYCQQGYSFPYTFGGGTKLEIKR', 'nM', 0.15);
